Ref: paper PMC10786891

Listing: pKd of selected binders
Biological target: T1, EsCas13d, nuclease-dead (Eubacterium siraeum, UniProt B0MS50, R295A;H300A;R849A;H854A)
T1 sequence: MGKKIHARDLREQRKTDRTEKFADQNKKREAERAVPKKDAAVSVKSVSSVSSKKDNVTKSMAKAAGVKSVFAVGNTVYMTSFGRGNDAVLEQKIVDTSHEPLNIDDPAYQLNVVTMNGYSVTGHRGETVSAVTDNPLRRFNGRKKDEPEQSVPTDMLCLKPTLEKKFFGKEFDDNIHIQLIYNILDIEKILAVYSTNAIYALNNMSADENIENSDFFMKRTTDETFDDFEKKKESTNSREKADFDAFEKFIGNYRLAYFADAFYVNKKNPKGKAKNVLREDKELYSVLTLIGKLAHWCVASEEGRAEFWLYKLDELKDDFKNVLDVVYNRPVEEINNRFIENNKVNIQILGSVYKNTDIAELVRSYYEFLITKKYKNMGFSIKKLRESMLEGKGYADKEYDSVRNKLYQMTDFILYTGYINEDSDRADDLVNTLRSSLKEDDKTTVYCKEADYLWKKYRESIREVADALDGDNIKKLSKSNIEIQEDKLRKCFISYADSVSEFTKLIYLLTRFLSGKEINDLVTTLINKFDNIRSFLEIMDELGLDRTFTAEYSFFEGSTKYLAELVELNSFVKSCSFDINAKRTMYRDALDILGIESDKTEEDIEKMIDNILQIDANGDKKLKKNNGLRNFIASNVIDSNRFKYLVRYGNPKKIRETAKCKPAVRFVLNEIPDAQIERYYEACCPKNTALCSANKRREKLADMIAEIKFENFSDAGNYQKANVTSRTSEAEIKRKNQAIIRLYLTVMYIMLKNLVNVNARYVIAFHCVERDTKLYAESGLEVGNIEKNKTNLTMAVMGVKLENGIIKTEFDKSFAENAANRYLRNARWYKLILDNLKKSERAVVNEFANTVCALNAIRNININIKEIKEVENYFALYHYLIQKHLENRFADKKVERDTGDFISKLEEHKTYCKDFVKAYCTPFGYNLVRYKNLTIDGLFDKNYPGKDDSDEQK
Assay: crRNA (strand 1, pre-loaded); Mg2+; 40 mM Tris-HCl pH 7.5, 150 mM NaCl, 6 mM MgCl2, 1 mM DTT, 0.1% Tween-20, 0.2 mg/ml BSA; 25 C; 10 min per concentration, then washed
Details: tags: His6-TwinStrep-SUMO cleaved; N-terminal SNAP kept (SNAP-Surface 488); label: 3' end held by stalled T7 RNA polymerase
pKd: −log10 of the molar value.
experimentalReadout: pKd

[[record]]
binder = "target 2 MT 5'PFS UCA 3'PFS CCA (mixed) RNA 1: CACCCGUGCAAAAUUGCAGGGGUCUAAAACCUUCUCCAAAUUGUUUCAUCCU RNA 2: GGGAAUGGAUCCACAUCUACGAAUUCUCAAGGAUGAAACAAUUUGGAGAAGCCAAGAUCGGAAGAGCACACGU"
experimentalreadout = "pKd"
testresult = 8.00

[[record]]
binder = "target 2 MT 5'PFS AGU 3'PFS AGG (mixed) RNA 1: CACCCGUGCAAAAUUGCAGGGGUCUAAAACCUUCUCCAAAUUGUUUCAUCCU RNA 2: GGGAAUGGAUCCACAUCUACGAAUUCAGUAGGAUGAAACAAUUUGGAGAAGAGGAGAUCGGAAGAGCACACGU"
experimentalreadout = "pKd"
testresult = 7.91

[[record]]
binder = "target 1 C6A,U8C (mixed) RNA 1: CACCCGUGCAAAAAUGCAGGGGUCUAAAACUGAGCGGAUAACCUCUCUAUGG RNA 2: GGGAAUGGAUCCACAUCUACGAAUUCGUACCAUAGAGAGGUUACCAGCUCACCGAGAUCGGAAGAGCACACGU"
experimentalreadout = "pKd"
testresult = 7.97

[[record]]
binder = "target 3 C1U,A12C (mixed) RNA 1: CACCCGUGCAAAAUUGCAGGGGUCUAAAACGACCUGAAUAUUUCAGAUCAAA RNA 2: GGGAAUGGAUCCACAUCUACGAAUUCGUUUUUGAUCUGACAUAUUCAGGUUUGCAGAUCGGAAGAGCACACGU"
experimentalreadout = "pKd"
testresult = 7.06

